- test-target: UniProt:Q9NR97
- Sequence (Q9NR97 27-1041): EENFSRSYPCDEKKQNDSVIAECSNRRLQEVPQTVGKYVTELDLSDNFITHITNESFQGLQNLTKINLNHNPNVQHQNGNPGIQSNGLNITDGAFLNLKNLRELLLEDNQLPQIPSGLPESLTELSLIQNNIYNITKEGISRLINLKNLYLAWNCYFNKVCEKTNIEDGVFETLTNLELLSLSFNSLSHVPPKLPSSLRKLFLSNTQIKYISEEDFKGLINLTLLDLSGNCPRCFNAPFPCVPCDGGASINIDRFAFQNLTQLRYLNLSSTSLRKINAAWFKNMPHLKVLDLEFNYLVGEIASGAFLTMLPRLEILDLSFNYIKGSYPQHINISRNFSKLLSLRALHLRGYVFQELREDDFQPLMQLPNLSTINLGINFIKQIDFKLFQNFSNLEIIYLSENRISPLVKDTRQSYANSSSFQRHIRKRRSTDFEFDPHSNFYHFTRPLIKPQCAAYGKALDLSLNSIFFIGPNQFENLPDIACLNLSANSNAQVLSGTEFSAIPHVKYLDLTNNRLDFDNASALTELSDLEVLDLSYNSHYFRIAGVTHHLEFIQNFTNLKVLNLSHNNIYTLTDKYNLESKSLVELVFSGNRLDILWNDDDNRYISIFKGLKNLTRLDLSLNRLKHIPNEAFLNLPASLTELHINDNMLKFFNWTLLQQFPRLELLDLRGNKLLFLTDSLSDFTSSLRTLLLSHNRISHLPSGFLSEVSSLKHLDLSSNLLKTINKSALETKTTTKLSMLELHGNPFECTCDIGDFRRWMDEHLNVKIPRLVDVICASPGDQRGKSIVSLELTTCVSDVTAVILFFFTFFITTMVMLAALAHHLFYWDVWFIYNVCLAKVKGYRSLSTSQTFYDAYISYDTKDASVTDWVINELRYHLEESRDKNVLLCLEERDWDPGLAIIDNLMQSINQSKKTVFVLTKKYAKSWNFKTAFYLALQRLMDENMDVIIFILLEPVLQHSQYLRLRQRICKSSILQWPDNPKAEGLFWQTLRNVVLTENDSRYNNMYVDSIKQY
- assay-summary: TLR8 inhibition reporter assay (HEK-Blue SEAP);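 further: SEAP driven by IFN-β minimal promoter carrying NF-κB and AP-1 sites, compounds dosed 0.05 nM to 50 µM for 22 h, inhibition scaled between agonist-plus-DMSO and reference-inhibitor wells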
- condition-summary: read-out: TLR8 IC50; HEK-Blue human TLR8 cells, R848 15.9 μM
pIC50: −log10 of the molar value.

molecule	pIC50
Cc1c(-c2[nH]c3ccc(N4[C@H](C)CNC[C@H]4C)nc3c2C(C)C)cn2ncnc2c1C	8.38
Cc1c(-c2[nH]c3ccc(N4CCNC[C@@H]4C(C)C)nc3c2C(C)C)cn2ncnc2c1C	9.14
Cc1c(-c2[nH]c3ccc(N4CCN(C(=O)CN(C)C(C)(C)C)C[C@H]4C)nc3c2C(C)C)cn2ncnc2c1C	8.07
Cc1c(-c2[nH]c3ccc(N4CCN(C(=O)CNC5CC5)CC4)nc3c2C(C)C)cn2ncnc2c1C	9.16
Cc1c(-c2[nH]c3ccc(N4CCN(C(=O)C5CN(C)C5)CC4)nc3c2C(C)C)cn2ncnc2c1C	8.85
Cc1c(-c2[nH]c3ccc(N4CCN(C(=O)CN5CCC6(COC6)C5)CC4)nc3c2C(C)C)cn2ncnc2c1C	8.54
CCN(CC(=O)N1CCN(c2ccc3[nH]c(-c4cn5ncnc5c(C)c4C)c(C(C)C)c3n2)CC1)C(C)C	8.47
Cc1c(-c2[nH]c3ccc(N4C[C@@H](C)N(C(C)C)C[C@@H]4C)nc3c2C(C)C)cn2ncnc2c1C	7.96
Cc1c(-c2[nH]c3ccc(N4CCN(CCC(N)=O)C[C@@H]4C)nc3c2C(C)C)cn2ncnc2c1C	9.25
Cc1c(-c2[nH]c3ccc(N4CCN(C(C)C)C[C@H]4C)nc3c2C(C)C)cn2ncnc2c1C	8.31
Cc1c(-c2[nH]c3ccc(N4C[C@@H](C)N(C(=O)CCN5CCC(F)C5)C[C@@H]4C)nc3c2C(C)C)cn2ncnc2c1C (stereo partly drawn)	9.04
Cc1c(-c2[nH]c3ccc(N4CCN(CC(=O)N(C)C)C[C@@H]4C)nc3c2C(C)C)cn2ncnc2c1C	8.40
Cc1c(-c2[nH]c3ccc(N4CC5CCC(C4)N5)nc3c2C(C)C)cn2ncnc2c1C	8.77
Cc1c(-c2[nH]c3ccc(N4CCN(C(=O)CN(C)C)C[C@@H]4C)nc3c2C(C)C)cn2ncnc2c1C	9.25
Cc1c(-c2[nH]c3ccc(N4CCN(C(=O)CN(CC(C)C)CC(C)C)CC4)nc3c2C(C)C)cn2ncnc2c1C	7.17

###

- test-target: human TLR7 (Homo sapiens (Human), UniProt Q9NYK1)
- Sequence (Q9NYK1 27-1049): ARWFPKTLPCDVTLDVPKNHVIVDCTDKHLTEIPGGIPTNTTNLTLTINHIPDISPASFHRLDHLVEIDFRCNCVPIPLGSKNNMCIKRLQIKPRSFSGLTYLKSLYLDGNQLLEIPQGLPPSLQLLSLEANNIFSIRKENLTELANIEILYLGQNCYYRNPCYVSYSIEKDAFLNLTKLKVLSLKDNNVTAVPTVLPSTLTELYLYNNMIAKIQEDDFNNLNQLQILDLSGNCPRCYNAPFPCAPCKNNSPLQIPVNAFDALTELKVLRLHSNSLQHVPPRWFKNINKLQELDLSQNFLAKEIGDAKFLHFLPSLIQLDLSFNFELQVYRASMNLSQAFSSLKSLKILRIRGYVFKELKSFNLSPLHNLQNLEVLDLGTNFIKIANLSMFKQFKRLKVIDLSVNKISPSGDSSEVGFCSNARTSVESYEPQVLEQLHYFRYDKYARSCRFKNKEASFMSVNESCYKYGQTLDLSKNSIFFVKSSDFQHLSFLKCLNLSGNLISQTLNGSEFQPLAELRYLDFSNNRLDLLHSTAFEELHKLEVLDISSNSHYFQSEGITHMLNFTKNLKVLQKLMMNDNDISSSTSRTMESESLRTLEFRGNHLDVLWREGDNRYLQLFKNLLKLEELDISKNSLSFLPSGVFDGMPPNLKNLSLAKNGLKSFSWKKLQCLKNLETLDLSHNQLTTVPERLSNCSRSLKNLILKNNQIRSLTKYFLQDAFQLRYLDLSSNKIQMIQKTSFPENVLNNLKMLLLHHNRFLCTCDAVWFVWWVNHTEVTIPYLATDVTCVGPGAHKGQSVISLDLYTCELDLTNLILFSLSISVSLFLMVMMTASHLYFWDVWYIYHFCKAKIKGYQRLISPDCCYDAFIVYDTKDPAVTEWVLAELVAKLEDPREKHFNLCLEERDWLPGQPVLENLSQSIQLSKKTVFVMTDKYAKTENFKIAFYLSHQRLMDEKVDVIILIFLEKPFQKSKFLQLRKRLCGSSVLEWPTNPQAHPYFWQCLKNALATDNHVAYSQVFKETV
- assay-summary: TLR7 inhibition reporter assay (HEK-Blue SEAP)
- Type: cell-based
- condition-summary: HEK-Blue cells overexpressing human TLR7, gardiquimod 7.5 μM stimulation, SEAP reporter
readout-name: log10(IC50) (log10 of the value in nM)

molecule	log10(IC50)
Cc1c(-c2[nH]c3ccc(C4CCC(N(C)C)CC4)nc3c2C(C)C)cn2ncnc2c1C (centres unmarked) [Example 355]	0.41
COc1cc(-c2[nH]c3ccc(N4CCN(CCCC(F)(F)F)CC4)nc3c2C(C)C)cn2ncnc12 [Example 135]	0.67
Cc1c(-c2[nH]c3ccc(N4CCN(C)CC4=O)nc3c2C(C)C)cn2ncnc2c1C [Example 142]	2.03
CC(C)c1c(-c2cn(CCS(C)(=O)=O)c3ncccc23)[nH]c2ccc(C3CCC(NC4CCOCC4)CC3)nc12 (centres unmarked) [Example 266]	1.65
COc1cc(-c2[nH]c3ccc(N4CCN(CC(C)C)CC4)nc3c2C(C)C)cn2ncnc12 [Example 109]	0.56
COc1cc(-c2[nH]c3cc(C)c(C4CCC(N)CC4)nc3c2C(C)C)cn2ncnc12 (centres unmarked) [Example 318]	-0.77
C#CCNC1CCC(c2ccc3[nH]c(-c4cn5ncnc5c(C)c4C)c(C(C)C)c3n2)CC1 (centres unmarked) [Example 375]	-0.06
